Multi-source literature compilation: IC50 on cGMP-specific 3',5'-cyclic phosphodiesterase (Homo sapiens).
RECORDED_METRIC: IC50 (nM)

Guide cases for IC50, answers given:
CC(C)COc1ccc(S(=O)(=O)N2CCN(C)CC2)cc1-c1nc2c([nH]1)c(=O)n(C)c(=O)n2CC(C)C	93
COCc1nc2c(n1Cc1ccccc1)C(=O)N(C)C1=N[C@@H]3CCC[C@@H]3N12	1000

[A] O=C(O)Cc1cccc(NC(=O)c2cccc(COc3ccccc3)n2)n1
[B] CCCOc1ccc(NS(C)(=O)=O)cc1-c1nc2c(c(C)nn2CC)c(=O)[nH]1
Lookup: Exercise: compare A and B ; which one has the greater IC50? Field: selected label. Fill in the label of the entry you choose.
Found: A

[P] CCCOCCn1c(=O)c(NCCN2CCOCC2)nc2cnc(-c3ccc(OC)nc3)nc21
[Q] CCc1cc(C(C)=O)c(O)cc1OCc1cccc(C(=O)NCC(O)c2ccc(O)cc2)n1 (stereo unspecified)
Lookup: Exercise: compare P and Q ; which one has the greater IC50? Field: selected label. Fill in the label of the entry you choose.
Found: Q
(Q: 3190 nM, P: 1.21 nM)
